Origin of measurements: PubChem BioAssay (EPA / NIEHS)

# Read-out: HGF (gene 3082)
# experiment-description: LTEA_HepaRG_HGF: Life Technologies and Expression Analysis (LTEA) Assay for Hepatocyte Growth Facto (HGF) using HepaRG (AID 2283505)
# test-context: mRNA level, 48 h; actives raise or lower the signal
# Description: LTEA_HepaRG is a cell based, multiplexed-readout assay that uses HepaRG, a human liver cell line, with measurements taken at 48 hours after chemical dosing on a 96-well plate.LTEA_HepaRG_HGF is one of 102 assay component(s) measured in the LTEA HepaRG cell culture assay. It is a marker of Cell proliferation, survival, death.Data from the assay component LTEA_HepaRG_HGF was analyzed into 1 endpoint. […]
Calls of active or inactive are those of the source. The calls were made as follows: active = hit-call score of the fitted dose curve at least 0.9, where 1 is the maximum; inactive = score below 0.9.
Entry note: the call must match one of yes (1) = active, no (0) = inactive

Some entries whose results are on file:
• CCCCCCCCOC(=O)CCCCCCCCC(=O)OCCCCCCCC = no (0)
• CC#C[C@]1(O)CC[C@H]2[C@@H]3CCC4=CC(=O)CCC4=C3[C@@H](c3ccc(N(C)C)cc3)C[C@@]21C = yes (1)
• CCOC(=O)CC(O)(CC(=O)OCC)C(=O)OCC = no (0)
• CC(C)(C)c1cc(C(C)(C)C)c(O)c(C(C)(C)C)c1 = no (0)

Ask: Entry CN(C)C=O : call = ?
Reply: no (0)

Ask: Record request — test call for CN1CCN(c2ccccc2/C=C2\SCCN(c3ccc(Cl)c(Cl)c3)C2=O)CC1
Reply: no (0)

Ask: Kindly provide the recorded test outcome for the following compound: O=[N+]([O-])c1ccc(O)cc1
Reply: no (0)

Ask: Assay outcome for CCCOC(=O)c1ccc(O)cc1 : what was it?
Reply: no (0)

Ask: # fetch the recorded call for O=C(O)Cc1cc(I)c(Oc2cc(I)c(O)c(I)c2)c(I)c1 here
Reply: yes (1)

Ask: // outcome(item) with item = NC(=O)N1C(=O)C(C(=O)c2cc(Cl)cs2)c2cc(F)c(Cl)cc21 (stereo not drawn)
Reply: no (0)

Ask: In this assay, the call recorded for CCCCC(CC)COC(=O)CCCCC(=O)OCc1ccccc1 (stereo not drawn) was what?
Reply: no (0)

Ask: Test call, this compound: CCc1ccc(CCOc2ccc(CC3SC(=O)NC3=O)cc2)nc1 (stereo not drawn)
Reply: no (0)

Ask: Per the assay record, what outcome was assigned to N#C[C@@H]1CC(F)(F)CN1C(=O)CNC1CC2CCC(C1)N2c1ncccn1 (stereo partly drawn) ?
Reply: no (0)

Ask: // return assay outcome for c1ccc2c(c1)ccc1ccccc12
Reply: no (0)

###

# Read-out: Potassium channel subfamily K member 1 (KCNK1), KCNK1 (gene 3775)
# experiment-description: LTEA_HepaRG_KCNK1: Life Technologies and Expression Analysis (LTEA) Assay for Potassium channel subfamily K member 1 (KCNK1) using HepaRG (AID 2283511)
# test-context: mRNA level, 48 h; actives raise or lower the signal
The source made the active and inactive calls. How the source made its calls: active means hit-call score of the fitted dose curve at least 0.9, where 1 is the maximum; inactive means score below 0.9.
Bench note: report the call from active, inactive

Use the examples below as a reference point.
* CCCCCCCC(=O)O | inactive
* CC[C@H](C)[C@@H](C(=O)O)n1sc2ccccc2c1=O | inactive
* OCCC(F)(F)C(F)(F)C(F)(F)C(F)(F)C(F)(F)C(F)(F)F | inactive
* NC(=O)N1C(=O)C(C(=O)c2cc(Cl)cs2)c2cc(F)c(Cl)cc21 (configuration not stated) | active
* CCc1nn(C2CCCCC2)c2cc(C3(C#N)CCC(C(=O)O)CC3)ccc12 (configuration not stated) | active

Ask: Answer briefly: the call reported for Oc1cccc(O)c1 in this assay.
Reply: inactive

Ask: Lab log entry: NC(=O)N(O)[C@@H]1C=C[C@H](Oc2cccc(Oc3ccc(F)cc3)c2)C1 — outcome as called in the assay?
Reply: active
